Molecular target: human KDR enzyme (Homo sapiens)
Construct: The cytoplasmic domain of the human KDR enzyme was cloned in GST fusion form; GST; made in house; host or cells: SF21 insect cells (baculovirus, pFastBac)
Sequence (P35968 786-1356 limits assumed): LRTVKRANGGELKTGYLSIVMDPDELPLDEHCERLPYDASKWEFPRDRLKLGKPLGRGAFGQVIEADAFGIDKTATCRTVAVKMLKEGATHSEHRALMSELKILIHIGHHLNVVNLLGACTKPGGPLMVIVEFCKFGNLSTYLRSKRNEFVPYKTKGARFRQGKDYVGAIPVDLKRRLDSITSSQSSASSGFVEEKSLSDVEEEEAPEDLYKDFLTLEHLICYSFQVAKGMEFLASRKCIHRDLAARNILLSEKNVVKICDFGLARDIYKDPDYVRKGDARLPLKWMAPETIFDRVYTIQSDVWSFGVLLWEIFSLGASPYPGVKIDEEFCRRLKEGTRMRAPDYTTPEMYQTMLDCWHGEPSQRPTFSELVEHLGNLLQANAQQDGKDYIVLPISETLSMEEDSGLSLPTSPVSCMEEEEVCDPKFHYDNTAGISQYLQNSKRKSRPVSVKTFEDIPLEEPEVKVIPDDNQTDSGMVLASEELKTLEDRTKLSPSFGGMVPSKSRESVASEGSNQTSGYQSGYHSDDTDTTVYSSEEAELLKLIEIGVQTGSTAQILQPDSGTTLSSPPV
Assay: KDR kinase inhibition: phosphorylation of PLCγ SH2-SH3 substrate by KDR enzyme, 33P-ATP scintillation plate
Type: biochemical
Conditions: read-out: KDR % Inhib. 10 μM
Description: The inhibitory effect of the compounds is determined in an assay for phosphorylation of substrate by the KDR enzyme in vitro using a scintillation technique (96-well plate, NEN). The cytoplasmic domain of the human KDR enzyme was cloned in GST fusion form into the baculovirus expression vector pFastBac. […] The KDR kinase activity is measured in 20 mM MOPS, 10 mM MgCl2, 10 mM MnCl2, 1 mM DTT, 2.5 mM EGTA, 10 mM b-glycerophosphate, pH=7.2, in the presence of 10 mM MgCl2, 100 μM Na3VO4 and 1 mM NaF. […]
Property Measured: inhibition at 10 µM (%)

Cc1cc2nc(-c3[nH]nc4c3CCN(C(=O)Nc3cccs3)C4)[nH]c2cc1C 63.3
COc1ccccc1NC(=O)N1CCc2c(n[nH]c2-c2nc3cc(C)c(C)cc3[nH]2)C1 8.1
Cc1cc2nc(-c3[nH]nc4c3CCN(C(=O)c3ccc(S(C)(=O)=O)cc3)C4)[nH]c2cc1C 27.9
Cc1cc2nc(-c3[nH]nc4c3CCN(CCc3ccccc3)C4)[nH]c2cc1C 15.4
Cc1cc2nc(-c3[nH]nc4c3CCN(S(C)(=O)=O)C4)[nH]c2cc1C 78.1

I: O=C(c1cccnc1)N1CCc2c(n[nH]c2-c2nc3ccccc3[nH]2)C1
II: Cc1cc2nc(-c3[nH]nc4c3CCN(CC(C)C)C4)[nH]c2cc1C
Look at I and II . Which one has the lower recorded inhibition at 10 µM number? The response must carry the label of the picked entry.
II

I: Cc1cc2nc(-c3[nH]nc4c3CCN(C)C4)[nH]c2cc1C
II: Cc1cc2nc(-c3[nH]nc4c3CCN(S(=O)(=O)Cc3ccc(F)cc3)C4)[nH]c2cc1C
Look at I and II . Which one has the lower recorded inhibition at 10 µM number? The response must carry the label of the picked entry.
I
(I: 12.2%, II: 57.7%)

I: Cc1cc2nc(-c3[nH]nc4c3CCN(CC(C)(C)C)C4)[nH]c2cc1C
II: Cc1cc2nc(-c3[nH]nc4c3CCN(S(=O)(=O)CC(F)(F)F)C4)[nH]c2cc1C
III: Cc1cc2nc(-c3[nH]nc4c3CCN(C(=O)Cc3ccccc3)C4)[nH]c2cc1C
Order the 3 molecules from highest to lowest inhibition at 10 µM. Sort and list the labels as requested.
I, II, III

A: Cc1cc2nc(-c3[nH]nc4c3CCN(S(=O)(=O)c3ccccc3Cl)C4)[nH]c2cc1C
B: Cc1ccc(S(=O)(=O)N2CCc3c(n[nH]c3-c3nc4cc(C)c(C)cc4[nH]3)C2)cc1
Look at A and B . Which one has the lower recorded inhibition at 10 µM number? The response must carry the label of the picked entry.
B
(B: 27.4%, A: 45.7%)
